A collection of variants and their measured normalized RNA/DNA level with ligand (log10)
B1: library; a variant is named by its letters at N, in order (parent)
chain: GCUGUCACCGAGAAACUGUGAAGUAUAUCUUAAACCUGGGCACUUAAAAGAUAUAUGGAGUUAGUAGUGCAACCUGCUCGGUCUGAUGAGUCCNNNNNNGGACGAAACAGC

# Variants of: B1
# assayText: normalized RNA/DNA level with ligand (relative to sTRSVctl = 100) (log10 (% of sTRSVctl)); HEK293T; ligand: cyclic di-GMP (c-di-GMP-II aptamer); ligand concentration (+) RNA-Seq: 1 mM; higher = less ribozyme self-cleavage, higher mRNA level
# assayConditions: reporter: mCherry (pCS4076), ligand present: yes
propertyLabel: normalized RNA/DNA level with ligand (log10)

| mutant | recordedNumber |
| --- | --- |
| AUAGAG | 1.73 |
| UCUUCG | 1.89 |
| GGCGUC | 1.79 |
| AUAUUU | 1.84 |
| CUGGAC | 1.77 |
| AGGUGC | 1.82 |
| AGACCU | 1.89 |
| AUUCCA | 1.88 |
| UAACCA | 1.86 |
| AGGCAA | 1.6 |
| UAACUA | 1.82 |
| CUCUGA | 1.81 |
| GUAUAU | 1.75 |
| GCUCAU | 1.78 |
| UAUCGA | 1.79 |
| UAGCUC | 1.89 |
| UCGCAU | 1.76 |
| ACCGUU | 1.72 |
| CAGCAU | 1.72 |
| CCAGAU | 1.81 |
| GAGACA | 1.85 |
| GAACUG | 1.75 |
| UGCCUU | 1.87 |
| UCUGUA | 1.77 |
| AGAGUC | 1.76 |
| CAGGUC | 1.84 |
| CCAUGG | 1.82 |
| GCCGCA | 1.84 |
| CUAUGG | 1.87 |
| CGCUAG | 1.87 |
| ACUGAC | 1.77 |
| AAAUAU | 1.78 |
| UACUCG | 1.88 |
| CACUCA | 1.62 |
| UACAUG | 1.85 |
| CGUCAA | 1.49 |
| UCGAAG | 1.74 |
| GGGUAU | 1.9 |
| UUAAAA | 1.8 |
| UGCUUA | 1.87 |
| GCUUAC | 1.75 |
| AGCCUA | 1.8 |
| AGGCUU | 1.85 |
| CGAUGC | 1.88 |
| CUACUU | 1.73 |
| CCCAUA | 1.65 |
| CCGGGC | 1.93 |
| UCCCCG | 1.96 |
| ACACAG | 1.68 |
| GGCACA | 1.8 |
| AGUCAG | 1.73 |
| AGAUGA | 1.61 |
| GACUCA | 1.83 |
| GAGAGG | 1.82 |
| GGGGAC | 1.8 |
| AGUAUU | 1.83 |
| AUCCGU | 1.89 |
| GGUGCC | 1.95 |
| GUACUU | 1.81 |
| CAGACA | 1.51 |
| CCUAAG | 1.74 |
| GAAAAA | 1.61 |
| ACCAUC | 1.81 |
| GGUCGU | 1.83 |
| UGGGGG | 1.87 |
| UUCACA | 1.89 |
